# assay_text: 14-day daily oral repeated-dose DRF study in Beagle dogs (citrate salt)
# Assay type: in vivo
# recorded_conditions: both sexes, Beagle, dog, plasma, po, 1 mg/kg/day, Day 1; read-out: mean Cmax plasma levels
reported_metric: Cmax (ng/mL)
Unit ng/mL implied. Number only.

Q: Supply measured Cmax of CC(C)C[C@@H]1NCCN([C@@H](CC(C)C)C(=O)N2CCC3(C[C@@H]2C)OCC(CN2CCCC2)CO3)C1=O (stereo partly shown) [Compound 1] in your reply.
Ans: 8.6

====

# assay_text: 14-day daily oral repeated-dose exploratory study in CD-1 mice (mesylate salt)
# Assay type: in vivo
# recorded_conditions: male, CD-1, mouse, in vivo, po, 15 mg/kg, M, Day 1
reported_metric: Cmax (ng/mL)
Unit ng/mL implied. Number only.

Q: Supply measured Cmax of CC(C)C[C@@H]1NCCN([C@@H](CC(C)C)C(=O)N2CCC3(C[C@@H]2C)OCC(CN2CCCC2)CO3)C1=O (stereo partly shown) [Compound 1] in your reply.
Ans: 133
